- assay.name: Solubility in water and formulations
- experimental.conditions: Na salts in water
result.type: Solubility Water (µg/mL)
# unit: µg/mL | format: bare number

Example entries begin here.
[NH-]S(=O)(=O)c1nn2cc(-c3ccc(N4CCOCC4)cc3)nc2s1.[Na+] | 2300
[NH-]S(=O)(=O)c1nn2cc(-c3ccc(Oc4ccc(Cl)cc4)cc3)nc2s1.[Na+] | 10000
[NH-]S(=O)(=O)c1nn2cc(-c3ccc(-c4cccc(C(F)(F)F)c4)cc3)nc2s1.[Na+] | 1400

--- query ---
Prompt: Consider the molecule [NH-]S(=O)(=O)c1nn2cc(-c3ccccc3)nc2s1.[Na+] and give its recorded Solubility Water.
Completion: 10000
